# % Inh 10 nM per record follows
tested-system: T1, human GIP receptor (human), P48546
T1 chain: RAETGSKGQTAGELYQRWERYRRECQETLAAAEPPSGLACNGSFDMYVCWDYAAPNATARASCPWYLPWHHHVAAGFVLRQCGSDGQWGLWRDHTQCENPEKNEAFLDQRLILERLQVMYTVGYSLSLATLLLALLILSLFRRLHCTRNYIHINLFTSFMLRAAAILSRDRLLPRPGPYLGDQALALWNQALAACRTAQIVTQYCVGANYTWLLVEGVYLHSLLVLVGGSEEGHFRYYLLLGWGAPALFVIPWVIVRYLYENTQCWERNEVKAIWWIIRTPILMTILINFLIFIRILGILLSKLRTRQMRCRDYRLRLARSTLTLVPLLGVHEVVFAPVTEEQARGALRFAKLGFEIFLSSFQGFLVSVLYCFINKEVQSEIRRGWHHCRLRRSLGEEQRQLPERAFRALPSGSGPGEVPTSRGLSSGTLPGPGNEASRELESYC
assay-remarks: 125I-GIP displacement, HEK-GIPR membranes
Reply numerically in %, unit not repeated.

Reported % Inh 10 nM for YAEGTFISDYSIAMDKIHQQDFVNWLLAQKPKNIRYS (modifications not checked) [0601GIP4852] : what is it?
90

One more binder: YAEGTFISDYSIAMDKIHQQDFVNWLLAQKPKKIQYS (modifications not checked) [0601GIP4913]
92.1

One more binder: YAEGTFISDYSIAMDKIHQQDFVNWLLAQKPNKIRYS (modifications not checked) [0601GIP4851]
87
